- target_system: BRM (Homo sapiens)
- Sequence (P51531 whole entry): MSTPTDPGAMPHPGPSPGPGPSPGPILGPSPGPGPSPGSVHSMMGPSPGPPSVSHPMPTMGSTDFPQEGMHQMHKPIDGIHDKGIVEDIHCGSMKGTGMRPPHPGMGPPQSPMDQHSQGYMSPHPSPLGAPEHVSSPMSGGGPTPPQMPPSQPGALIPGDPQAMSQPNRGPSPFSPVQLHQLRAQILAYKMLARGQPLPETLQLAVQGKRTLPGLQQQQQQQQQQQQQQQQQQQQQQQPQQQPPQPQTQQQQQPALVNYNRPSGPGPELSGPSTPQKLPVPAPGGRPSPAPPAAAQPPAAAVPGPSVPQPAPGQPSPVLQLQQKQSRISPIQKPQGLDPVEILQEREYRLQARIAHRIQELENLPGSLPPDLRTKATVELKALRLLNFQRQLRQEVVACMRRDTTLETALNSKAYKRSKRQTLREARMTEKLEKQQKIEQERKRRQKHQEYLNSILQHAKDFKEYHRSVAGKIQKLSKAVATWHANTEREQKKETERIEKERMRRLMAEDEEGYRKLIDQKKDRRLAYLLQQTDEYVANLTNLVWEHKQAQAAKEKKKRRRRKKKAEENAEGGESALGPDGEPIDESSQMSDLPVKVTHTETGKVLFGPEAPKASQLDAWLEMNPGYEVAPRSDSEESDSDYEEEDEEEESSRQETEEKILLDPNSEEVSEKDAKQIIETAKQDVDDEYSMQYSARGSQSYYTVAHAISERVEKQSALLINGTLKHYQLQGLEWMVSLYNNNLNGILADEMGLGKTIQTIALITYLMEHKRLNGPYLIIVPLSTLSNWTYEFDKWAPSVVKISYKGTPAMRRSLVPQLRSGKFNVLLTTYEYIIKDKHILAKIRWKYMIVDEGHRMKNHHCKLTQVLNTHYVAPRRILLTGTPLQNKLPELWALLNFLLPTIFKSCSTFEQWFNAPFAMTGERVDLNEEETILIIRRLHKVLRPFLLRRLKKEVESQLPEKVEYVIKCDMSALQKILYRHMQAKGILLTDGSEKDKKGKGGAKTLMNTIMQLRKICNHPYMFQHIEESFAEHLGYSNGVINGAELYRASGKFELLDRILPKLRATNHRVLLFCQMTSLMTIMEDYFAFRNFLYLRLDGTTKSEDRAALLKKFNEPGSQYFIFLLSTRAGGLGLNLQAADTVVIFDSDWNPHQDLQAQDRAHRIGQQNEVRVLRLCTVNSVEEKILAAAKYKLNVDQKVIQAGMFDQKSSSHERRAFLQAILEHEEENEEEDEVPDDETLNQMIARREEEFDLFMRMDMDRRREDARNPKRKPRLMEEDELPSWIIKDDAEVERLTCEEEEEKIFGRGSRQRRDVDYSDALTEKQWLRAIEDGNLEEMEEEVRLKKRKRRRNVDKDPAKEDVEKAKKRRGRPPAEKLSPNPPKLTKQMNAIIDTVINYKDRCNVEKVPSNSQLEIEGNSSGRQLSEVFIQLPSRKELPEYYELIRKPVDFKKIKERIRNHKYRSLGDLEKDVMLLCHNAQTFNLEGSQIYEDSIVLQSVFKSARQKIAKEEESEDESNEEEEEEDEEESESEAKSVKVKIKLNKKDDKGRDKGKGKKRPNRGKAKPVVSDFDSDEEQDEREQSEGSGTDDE
- measurement_notes: ATPase catalytic activity assay of BRM (ADP-Glo)
- Type: biochemical
Item-by-item account of BRM Max % Inhibition
measured_metric: BRM Max % Inhibition

compound | measured_metric | observed_measurement
Cc1nccc(-c2cccc(-c3csc(NC(=O)CNC(=O)c4ccc(C)c(C(C)(C)CN)c4)n3)n2)n1 | BRM Max % Inhibition | >95%
CC1COCc2ccc(C(=O)NCC(=O)Nc3nc(-c4cccc(N5C[C@@H](C)O[C@@H](C)C5)n4)cs3)cc21 (stereo partly drawn) | BRM Max % Inhibition | >95%
CC(C)S(=O)(=O)c1cccc(C(=O)NCC(=O)Nc2nc(-c3cccc(-c4cccnc4)c3)cs2)c1 | BRM Max % Inhibition | >95%
COc1cccc(-c2csc(NC(=O)CNC(=O)c3ccc4c(c3)C(C)(O)COC4)n2)c1 (stereo not drawn) | BRM Max % Inhibition | >90%
CCC(C)(O)c1cccc(C(=O)NCC(=O)Nc2nc(-c3cccc(-c4ccncc4)c3)cs2)c1 (stereo not drawn) [Compound 79] | BRM Max % Inhibition | >70%
COc1cc(-c2cccc(-c3csc(NC(=O)CNC(=O)c4cccc(S(=O)(=O)C(C)C)c4)n3)c2)ccn1 | BRM Max % Inhibition | >90%
CC(C)(CN)c1cccc(C(=O)NCC(=O)Nc2nc(-c3cccc(-c4ccnc(CO)c4)c3)cs2)c1 | BRM Max % Inhibition | >95%
C[C@@H]1CN(c2cccc(-c3csc(NC(=O)CNC(=O)c4cnc5c(c4)[C@@](C)(C#N)CC5)n3)c2)C[C@H](C)O1 | BRM Max % Inhibition | >90%
C[C@@H]1CN(c2cccc(-c3csc(NC(=O)CNC(=O)c4ccc(Cl)c(C(C)(C)CO)c4)n3)c2)C[C@H](C)O1 | BRM Max % Inhibition | >95%
CC1(C)c2cc(C(=O)NCC(=O)Nc3nc(-c4cccc(-c5ccncc5)c4)cs3)ccc2C[C@H]1N | BRM Max % Inhibition | >95%
COC(=O)N1CCCC(c2csc(NC(=O)CNC(=O)c3ccc4c(c3)[C@](C)(F)COC4)n2)C1 (stereo in doubt) | BRM Max % Inhibition | >95%
C[C@@H]1CN(c2cccc(-c3csc(NC(=O)CNC(=O)c4ccc5c(c4)CCOC5)n3)n2)C[C@H](C)O1 | BRM Max % Inhibition | >85%
CN1CCCc2ccc(C(=O)NCC(=O)Nc3nc(-c4cccc(-c5ccncc5)c4)cs3)cc2S1(=O)=O | BRM Max % Inhibition | >95%
C[C@@H]1CN(c2cccc(-c3csc(NC(=O)CNC(=O)c4cccc(C5(C)COC5)c4)n3)n2)C[C@H](C)O1 | BRM Max % Inhibition | >95%
C[C@@H]1CN(c2cccc(-c3csc(NC(=O)CNC(=O)c4ccc5c(c4)[C@H]([C@H](C)O)CC5)n3)n2)C[C@H](C)O1 | BRM Max % Inhibition | >80%
CCC(C)(O)c1cccc(C(=O)NCC(=O)Nc2nc(-c3cccc(-c4ccncc4)c3)cs2)c1 (single isomer, unassigned) [Compound 80] | BRM Max % Inhibition | >90%
CC(C)(CN)c1cccc(C(=O)NCC(=O)Nc2nc(-c3cccc(-c4cccc(CN)c4)c3)cs2)c1 | BRM Max % Inhibition | >90%
O=C(CNC(=O)c1cccc(C2(C(F)F)COC2)c1)Nc1nc(-c2cccc(N3CCC3)c2)cs1 | BRM Max % Inhibition | >90%
CC(C)S(=O)(=O)c1cccc(C(=O)NCC(=O)Nc2nc(-c3cccc(-c4ccnc(CN)c4)c3)cs2)c1 | BRM Max % Inhibition | >90%
CC1(C#N)CCOc2ccc(C(=O)NCC(=O)Nc3nc(-c4cccc([C@@H]5CC5(F)F)n4)cs3)cc21 (stereo in doubt) | BRM Max % Inhibition | >85%
COc1cccc(-c2csc(NC(=O)CNC(=O)c3ccc4c(c3)C(C)(F)CCCO4)n2)c1 (stereo in doubt) [Compound 325] | BRM Max % Inhibition | >95%
C[C@@]1(C#N)COCc2ccc(C(=O)NCC(=O)Nc3nc(-c4cccc([C@H]5CCO5)c4)cs3)cc21 | BRM Max % Inhibition | >95%
CC1OCCc2cc(C(=O)NCC(=O)Nc3nc(-c4cccc(N5C[C@@H](C)O[C@@H](C)C5)n4)cs3)ccc21 (stereo partly drawn) | BRM Max % Inhibition | >85%
C[C@@H]1CN(c2cccc(-c3csc(NC(=O)CNC(=O)c4cc(C(C)(C)C)ncc4F)n3)c2)C[C@H](C)O1 | BRM Max % Inhibition | >85%
COc1cc(F)cc(-c2csc(NC(=O)CNC(=O)c3ccc4c(c3)[C@](C)(C#N)COC4)n2)c1 | BRM Max % Inhibition | >95%
C[C@@H]1CN(c2cccc(-c3csc(NC(=O)CNC(=O)c4ccc5c(c4)[C@@](C)(CO)CN5C)n3)c2)C[C@H](C)O1 | BRM Max % Inhibition | >80%
COc1cc(-c2cccc(-c3csc(NC(=O)CNC(=O)c4cccc(C(C)(C)CN)c4)n3)c2)ccn1 | BRM Max % Inhibition | >80%

---

- target_system: BRM (Homo sapiens)
- measurement_notes: ATPase catalytic activity assay of BRM (ADP-Glo)
- Format: biochemical
measured_metric: BRM Max % Inhibition

molecule | target_system | measured_metric | observed_measurement
Cc1cc(-c2cccc(-c3csc(NC(=O)CNC(=O)c4ccc5c(c4)[C@@](C)(CO)CC5)n3)c2)nc(C)n1 [Compound 227] | BRM (Homo sapiens) | BRM Max % Inhibition | >95%
Cc1cc(-c2cccc(-c3csc(NC(=O)CNC(=O)c4cc(C)c(C)c(C(C)(C)CN)c4)n3)c2)cc(C)n1 [Compound 245] | BRM (Homo sapiens) | BRM Max % Inhibition | >95%
C[C@@H]1CN(c2cccc(-c3csc(NC(=O)CNC(=O)c4ccc5c(c4)C(C)(CO)COC5)n3)c2)C[C@H](C)O1 (stereo in doubt) [Compound 372] | BRM (Homo sapiens) | BRM Max % Inhibition | >95%
C[C@@]1(C#N)COCc2ccc(C(=O)NCC(=O)Nc3nc(-c4cccc([C@@H]5CC5(F)F)n4)cs3)cc21 [Compound 386] | BRM (Homo sapiens) | BRM Max % Inhibition | >95%
C[C@@H]1CN(c2cccc(-c3csc(NC(=O)CNC(=O)c4ccc5c(c4)[C@@](C)(C#N)CC5)n3)n2)C[C@H](C)O1 [Compound 262] | BRM (Homo sapiens) | BRM Max % Inhibition | >80%
C[C@@H]1CN(c2cccc(-c3csc(NC(=O)CNC(=O)c4ccc5c(c4)[C@](C)(C#N)CC5)n3)n2)C[C@H](C)O1 [Compound 152] | BRM (Homo sapiens) | BRM Max % Inhibition | >95%

---

- target_system: BRG-1 (Homo sapiens, UniProt P51532)
- Sequence (P51532 whole entry): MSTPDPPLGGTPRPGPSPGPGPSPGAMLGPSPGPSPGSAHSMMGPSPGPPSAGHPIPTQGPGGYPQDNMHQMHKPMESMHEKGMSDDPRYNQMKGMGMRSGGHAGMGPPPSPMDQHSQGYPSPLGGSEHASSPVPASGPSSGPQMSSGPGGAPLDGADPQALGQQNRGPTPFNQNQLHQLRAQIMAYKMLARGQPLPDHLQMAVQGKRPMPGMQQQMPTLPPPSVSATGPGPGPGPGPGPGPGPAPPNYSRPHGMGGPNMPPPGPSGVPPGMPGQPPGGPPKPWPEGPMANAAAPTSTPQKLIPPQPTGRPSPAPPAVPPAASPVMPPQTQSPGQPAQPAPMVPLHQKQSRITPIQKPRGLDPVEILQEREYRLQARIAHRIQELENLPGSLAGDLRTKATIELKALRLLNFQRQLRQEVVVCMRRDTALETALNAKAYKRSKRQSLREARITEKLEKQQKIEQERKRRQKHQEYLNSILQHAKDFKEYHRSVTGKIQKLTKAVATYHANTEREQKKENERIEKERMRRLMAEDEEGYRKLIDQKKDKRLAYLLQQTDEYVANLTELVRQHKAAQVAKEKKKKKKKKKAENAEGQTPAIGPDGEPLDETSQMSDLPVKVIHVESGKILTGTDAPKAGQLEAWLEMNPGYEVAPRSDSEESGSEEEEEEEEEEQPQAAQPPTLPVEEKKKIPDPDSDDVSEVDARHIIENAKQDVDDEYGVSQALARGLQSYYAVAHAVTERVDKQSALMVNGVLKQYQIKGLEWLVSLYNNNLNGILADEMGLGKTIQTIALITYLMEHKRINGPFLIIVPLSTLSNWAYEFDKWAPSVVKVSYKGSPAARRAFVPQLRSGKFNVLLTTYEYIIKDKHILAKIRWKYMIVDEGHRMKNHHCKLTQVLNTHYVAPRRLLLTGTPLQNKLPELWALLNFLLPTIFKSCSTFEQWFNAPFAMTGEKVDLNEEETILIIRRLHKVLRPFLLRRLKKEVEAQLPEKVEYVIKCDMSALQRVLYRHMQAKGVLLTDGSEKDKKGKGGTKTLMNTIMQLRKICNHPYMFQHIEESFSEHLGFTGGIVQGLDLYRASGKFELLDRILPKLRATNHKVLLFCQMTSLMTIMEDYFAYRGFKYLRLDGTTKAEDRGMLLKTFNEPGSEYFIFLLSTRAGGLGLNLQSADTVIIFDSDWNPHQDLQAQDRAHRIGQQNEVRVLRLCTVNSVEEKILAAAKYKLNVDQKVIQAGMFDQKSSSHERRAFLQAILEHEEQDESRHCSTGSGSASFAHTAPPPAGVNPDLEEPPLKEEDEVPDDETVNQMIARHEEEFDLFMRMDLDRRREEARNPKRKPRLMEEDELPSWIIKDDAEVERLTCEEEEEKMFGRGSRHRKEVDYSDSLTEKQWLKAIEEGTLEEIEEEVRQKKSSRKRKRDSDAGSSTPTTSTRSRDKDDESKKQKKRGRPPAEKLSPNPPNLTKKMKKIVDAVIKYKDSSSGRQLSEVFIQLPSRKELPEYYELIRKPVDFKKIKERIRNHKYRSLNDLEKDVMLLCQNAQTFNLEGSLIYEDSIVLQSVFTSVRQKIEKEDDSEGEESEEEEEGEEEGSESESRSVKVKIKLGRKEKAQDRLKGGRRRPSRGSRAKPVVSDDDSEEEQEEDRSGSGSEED
- measurement_notes: ATPase catalytic activity assay of BRG-1 (ADP-Glo)
- Format: biochemical
- experimental_conditions: ATPase catalytic activity, ADP-Glo; read-out: BRG1 IC50 (μM)*
measured_metric: IC50

molecule | target_system | observed_measurement
Cc1nccc(-c2cccc(-c3csc(NC(=O)CNC(=O)c4cccc(S(=O)(=O)C(C)C)c4)n3)c2)n1 [Compound 13] | BRG-1 (Homo sapiens, UniProt P51532) | < 0.1 µM
C[C@@H]1CN(c2cccc(-c3csc(NC(=O)CNC(=O)c4ccc5c(c4)[C@@](C)(C#N)CCO5)n3)c2)C[C@H](C)O1 [Compound 255] | BRG-1 (Homo sapiens, UniProt P51532) | > 5 µM
C[C@@H]1CN(c2cccc(-c3csc(NC(=O)CNC(=O)c4cccc([C@H]5COC[C@@H]5O)c4)n3)c2)C[C@H](C)O1 [Compound 156] | BRG-1 (Homo sapiens, UniProt P51532) | > 5 µM
Cn1ccc2ccc(-c3csc(NC(=O)CNC(=O)c4cccc(C5(C#N)CCC5)c4)n3)cc2c1=O [Compound 147] | BRG-1 (Homo sapiens, UniProt P51532) | 1 to 5 µM
C[C@@H]1CN(c2cccc(-c3csc(NC(=O)CNC(=O)c4ccc5c(c4)C(C)(CO)COC5)n3)c2)C[C@H](C)O1 (stereo in doubt) [Compound 372] | BRG-1 (Homo sapiens, UniProt P51532) | 0.1 to 1 µM
CN1CC=Cc2ccc(C(=O)NCC(=O)Nc3nc(-c4cccc(-c5ccncc5)c4)cs3)cc2S1(=O)=O [Compound 130] | BRG-1 (Homo sapiens, UniProt P51532) | > 5 µM
CC1(C)c2cc(C(=O)NCC(=O)Nc3nc(-c4cccc(-c5ccncc5)c4)cs3)ccc2C[C@H]1N [Compound 210] | BRG-1 (Homo sapiens, UniProt P51532) | 0.1 to 1 µM
CCC(C)(O)c1cccc(C(=O)NCC(=O)Nc2nc(-c3cccc(-c4ccncc4)c3)cs2)c1 (stereo not drawn) [Compound 79] | BRG-1 (Homo sapiens, UniProt P51532) | 0.1 to 1 µM
COC(=O)N1CCC(c2csc(NC(=O)CNC(=O)c3ccc4c(c3)[C@](C)(F)COC4)n2)CC1 [Compound 281] | BRG-1 (Homo sapiens, UniProt P51532) | 1 to 5 µM
C[C@@]1(C#N)COCc2ccc(C(=O)NCC(=O)Nc3nc(-c4cccc(F)c4)cs3)cc21 [Compound 322] | BRG-1 (Homo sapiens, UniProt P51532) | 0.1 to 1 µM
Cn1cc(-c2cccc(-c3csc(NC(=O)CNC(=O)c4cccc(C(C)(C)CO)c4)n3)c2)cn1 [Compound 104] | BRG-1 (Homo sapiens, UniProt P51532) | 1 to 5 µM
C[C@@]1(C#N)COCc2ccc(C(=O)NCC(=O)Nc3nc(-c4cccc(C5CCO5)c4)cs3)cc21 (stereo partly drawn) [Compound 365] | BRG-1 (Homo sapiens, UniProt P51532) | 0.1 to 1 µM
O=C(CNC(=O)c1cccc(C2(C(F)F)COC2)c1)Nc1nc(-c2cccc(N3CCC3)c2)cs1 [Compound 362] | BRG-1 (Homo sapiens, UniProt P51532) | 0.1 to 1 µM
C[C@@H]1CN(c2cccc(-c3csc(NC(=O)CNC(=O)c4cccc([C@]5(C)C[C@H](O)C5)c4)n3)c2)C[C@H](C)O1 [Compound 393] | BRG-1 (Homo sapiens, UniProt P51532) | > 5 µM
C[C@@H]1CN(c2cccc(-c3csc(NC(=O)CNC(=O)c4ccc(F)c(C(C)(C)CO)c4)n3)c2)C[C@H](C)O1 [Compound 200] | BRG-1 (Homo sapiens, UniProt P51532) | 0.1 to 1 µM
CC(=O)N(C)c1cc(-c2cccc(-c3csc(NC(=O)CNC(=O)c4cccc(S(=O)(=O)C(C)C)c4)n3)c2)ccn1 [Compound 25] | BRG-1 (Homo sapiens, UniProt P51532) | 0.1 to 1 µM
NCC1(c2cccc(C(=O)NCC(=O)Nc3nc(-c4cccc(-c5ccncc5)c4)cs3)c2)CC1 [Compound 72] | BRG-1 (Homo sapiens, UniProt P51532) | > 5 µM
CC(C)S(=O)(=O)c1cccc(C(=O)NCC(=O)Nc2nc(-c3cccc(-c4cc(CO)cc(C(F)(F)F)c4)c3)cs2)c1 [Compound 27] | BRG-1 (Homo sapiens, UniProt P51532) | 0.1 to 1 µM
C[C@@H]1CN(c2cccc(-c3csc(NC(=O)CNC(=O)c4cccc5c4OCC[C@]5(C)CO)n3)c2)C[C@H](C)O1 [Compound 252] | BRG-1 (Homo sapiens, UniProt P51532) | > 5 µM
CSCC[C@H](NC(=O)c1ccc2c(c1)C(C)(O)C(=O)N2)C(=O)Nc1nc(-c2ccccc2)cs1 (stereo partly drawn) [Compound 85] | BRG-1 (Homo sapiens, UniProt P51532) | > 5 µM
CC(C)S(=O)(=O)c1cccc(C(=O)NCC(=O)Nc2nc(-c3cccc(-c4ccnc(CN)c4)c3)cs2)c1 [Compound 124] | BRG-1 (Homo sapiens, UniProt P51532) | 1 to 5 µM
CC(C)(CN)c1cccc(C(=O)NCC(=O)Nc2nc(-c3cccc(-c4cc(C#N)cc(C#N)c4)c3)cs2)c1 [Compound 50] | BRG-1 (Homo sapiens, UniProt P51532) | 1 to 5 µM
C[C@@]1(C#N)COCc2ccc(C(=O)NCC(=O)Nc3nc(-c4cccc([C@H]5CC5(F)F)n4)cs3)cc21 [Compound 387] | BRG-1 (Homo sapiens, UniProt P51532) | 1 to 5 µM
C[C@@]1(C#N)COCc2ccc(C(=O)NCC(=O)Nc3nc(-c4cccc(C(F)F)c4)cs3)cc21 [Compound 398] | BRG-1 (Homo sapiens, UniProt P51532) | 0.1 to 1 µM
C[C@]1(CN)CCc2c(C(=O)NCC(=O)Nc3nc(-c4cccc(-c5ccncc5)c4)cs3)cccc21 [Compound 243] | BRG-1 (Homo sapiens, UniProt P51532) | 1 to 5 µM
C[C@@H]1CN(c2cccc(-c3csc(NC(=O)CNC(=O)c4ccc5c(c4)C(C)(CO)COC5)n3)c2)C[C@H](C)O1 (stereo in doubt) [Compound 373] | BRG-1 (Homo sapiens, UniProt P51532) | 1 to 5 µM
C[C@@]1(C#N)COCc2ccc(C(=O)NCC(=O)Nc3nc(-c4cccc([C@@H]5CC5(F)F)c4)cs3)cc21 [Compound 388] | BRG-1 (Homo sapiens, UniProt P51532) | < 0.1 µM
COc1cccc(-c2csc(NC(=O)CNC(=O)c3ccc4c(c3)[C@](C)(C#N)COC4)n2)c1 [Compound 401] | BRG-1 (Homo sapiens, UniProt P51532) | 0.1 to 1 µM
COC(=O)N1CCC[C@@H](c2csc(NC(=O)CNC(=O)c3ccc4c(c3)[C@](C)(C#N)COC4)n2)C1 [Compound 355] | BRG-1 (Homo sapiens, UniProt P51532) | 0.1 to 1 µM
Cc1nccc(-c2cccc(-c3csc(NC(=O)CNC(=O)c4cccc(C(C)(C)CO)c4)n3)n2)n1 [Compound 222] | BRG-1 (Homo sapiens, UniProt P51532) | 0.1 to 1 µM
